Recorded CC50 values for a group of molecules are listed next.
procedure.details: MT4 cytotoxicity (CC50)
protocol.conditions: human, MT4 cells, MT4 CC50, Table 4
Reply with just the number (in nM).

// below: answered molecules
I would be grateful if you could share the reported CC50 for CCCCCCCCCCCCCCCCOC[C@H](COP(=O)(O)OC[C@H]1O[C@@](C#N)(c2ccc3c(N)ncnn23)[C@H](O)[C@@H]1O)OCc1ccc(C#N)cc1F .
1940

Param item = CCCCCCCCCCCCCCCOC[C@H](COP(=O)(O)OC[C@H]1O[C@@](C#N)(c2ccc3c(N)ncnn23)[C@H](O)[C@@H]1O)OCc1cc(F)cc(C#N)c1 ; retrieve measured CC50.
291

Suppose we examine the molecule CCCCCCCCCCCCCCCCCCOC[C@H](COP(=O)(O)OC[C@H]1O[C@@](C#N)(c2ccc3c(N)ncnn23)[C@H](O)[C@@H]1O)Oc1cnc(C#N)cn1 ; what CC50 value has been reported?
196

# CC50 lookup, item CCCCCCCCCCCCCCCCCCOC[C@H](COP(=O)(O)OC[C@H]1O[C@@](C#N)(c2ccc3c(N)ncnn23)[C@H](O)[C@@H]1O)OCc1ccc(C(F)(F)F)nc1
1040

Here is the next item to consider.
Which CC50 value belongs to CCCCCCCC/C=C/CCCCCCCCOC[C@H](COP(=O)(O)OC[C@H]1O[C@@](C#N)(c2ccc3c(N)ncnn23)[C@H](O)[C@@H]1O)OCc1ccc(C#N)cc1F ?
3910

###

List of CC50 values.
procedure.details: MT4 cytotoxicity (CC50)
protocol.conditions: human, MT4 cells, MT4 CC50, Table 1a
Your answer is read as µM, so omit the unit and give the number.

Please review the entries below; each comes with its answer.
Would you kindly share the measured CC50 for CCCCCCCCCCCCCCCCCCOC[C@H](COP(=O)(O)OC[C@H]1O[C@@](C#N)(c2ccc3c(N)ncnn23)[C@H](O)[C@@H]1O)OCC1CCCCC1 [Example 3] ?
14

Quick one: CC50 of CCCCCCCCCCCCCCCCCCOC[C@H](COP(=O)(O)OC[C@H]1O[C@@](C#N)(c2ccc3c(N)ncnn23)[C@H](O)[C@@H]1O)OCc1ccc(OC)cc1 [Example 10] ?
3.43

# lookup: CC50 of CCCCCCCCCCCCCCCCCOC[C@H](COP(=O)(O)OC[C@H]1O[C@@](C#N)(c2ccc3c(N)ncnn23)[C@H](O)[C@@H]1O)OCc1ccccc1 [Example 6]
4.15

Now for the compound whose CC50 we want.
Please give the measured CC50 for this compound: CCCCCCCCCCCCCCCCCCCCOC[C@H](COP(=O)(O)OC[C@H]1O[C@@](C#N)(c2ccc3c(N)ncnn23)[C@H](O)[C@@H]1O)OCc1ccccc1 [Example 8]
33.4
